- Test system: MAP3K3;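 note: KINOMEscan kinase panel screen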
- measurement-conditions: concentration: 1 μM, replicates: in singlicate; n = 1
Parameter: %Inh. Scope: all listed entries.

As a guide, the following entries are already answered.
# compound, reported-property, measured-result
records = [
    ("O=C(Nc1ccccc1F)NC1CCN(c2ccnc(Nc3ccc(F)cc3)n2)CC1 [GSK1379800]", "%Inh", "0%"),
    ("COc1cccc(-c2ccc3c(NC(=O)C4CC4)n[nH]c3n2)c1 [SB-710903]", "%Inh", "0%"),
    ("c1ccc(-c2cnc3nccnn23)cc1 [AH20685]", "%Inh", "0%"),
]

Recorded %Inh of FC(F)(F)c1ccc(/C=C/c2cncnc2Nc2ccc3[nH]c(Cc4ccccc4)nc3c2)cc1 [GW709199] , please. 1%

Recorded %Inh of Cc1ccc(C(=O)Nc2ccc(Nc3ccnc4cc(-c5nccs5)ccc34)cc2O)cc1.Cl [GW494702] , please. 0%

Recorded %Inh of COC(=O)Nc1nc2cc(Oc3ccc(NC(=O)Nc4cc(C(F)(F)F)ccc4F)cn3)ccc2[nH]1.Cl.Cl [GW681170] , please. 0%

Recorded %Inh of O=C(NC1CCN(c2ccnc(Nc3ccc(F)cc3)n2)C1)c1cc2ccccc2s1 (stereo not drawn) [GSK1379716] , please. 0%

Recorded %Inh of Nc1ncnc2c1nc(-c1ccccc1)n2-c1ccccc1 [SKF-97293] , please. 14%

Recorded %Inh of c1ccc(-c2n[nH]cc2Nc2ccnc3ccccc23)nc1 [GW694077] , please. 0%

// provenance: paper PMC5540273
